Where these numbers come from: patent US7598400B2

# ASSAY_REMARKS: Partition coefficient n-octanol/water (buffer)
# Type: physicochemical
# RUN_PARAMETERS: pH 7.2; shaken for 2 hrs at 37° C.
OBSERVED_PROPERTY: Kp (n-octanol/water)

INSERT INTO assay_data (compound, observed_property, measured) VALUES
  ('CCOP(=O)(OCC)C1(C)CCC=[N+]1[O-] (stereo not shown) [DEPMPO]', 'Kp (n-octanol/water)', 0.16);

a: CC1(C)CCC=[N+]1[O-] [DMPO]
b: CC1(C(N)=O)CCC=[N+]1[O-] (stereo not shown) [AMPO, 5-carbamoyl-5-methyl-1-pyrroline N-oxide]
c: CCOC(=O)C1(C)CCC=[N+]1[O-] (stereo not shown) [EMPO]
[ask] In this exercise, place the 3 compounds in ascending sequence of their recorded Kp (n-octanol/water). Write the labels, ordered according to the request.
[reply] b, a, c
